Molecular target: NPFF2 receptor (human NPFFR2 in CHO-RD-HGA16 cells) (Homo sapiens)
Construct: expressed in transfected cells
Test: Calcium mobilization functional Ke assay, NPFF2
Format: cell-based
Settings: Table 4; mean ± SEM; read-out: NPFF2 Ke
Readout Kind: Kb

COc1ccc(CN[C@H]2C[C@@H](C(=O)NCCc3ccccc3)N(Cc3ccc(OC)c(OC)c3)C2)cc1 5.36 µM

Then there is this molecule:
QUERY: Query Kb for `COc1ccc(CN[C@H]2C[C@@H](C(=O)NCCc3ccccc3)N(Cc3ccc(O)cc3)C2)cc1`
RESULT: > 10 µM

* * *

Molecular target: NPFF2 receptor (human NPFFR2 in CHO-RD-HGA16 cells) (Homo sapiens)
Construct: expressed in transfected cells
Test: Calcium mobilization functional Ke assay, NPFF2
Format: cell-based
Conditions: Table 1; footnote c: pre-incubation of antagonist and test compound 45 min or 1 hr; read-out: NPFF2 Ke
Readout Kind: Kb

Molecule	Observed
CCCCCCNC(=O)[C@@H]1C[C@H](NCc2ccc(OC)cc2)CN1Cc1ccccc1Cl [Compound 18]	1490 nM
COc1ccc(CN[C@H]2C[C@@H](C(=O)NC(C)(C)C)N(Cc3ccccc3Cl)C2)cc1 [Compound 15]	1260 nM

QUERY: Query Kb for COc1ccc(CN[C@H]2C[C@@H](C(=O)NCCCc3ccccc3)N(Cc3ccccc3Cl)C2)cc1 [Compound 25]
RESULT: 2600 nM

* * *

Collected Kb values appear next to each entry.
Target: NPFF2 receptor (human NPFFR2 in CHO-RD-HGA16 cells) (Homo sapiens, UniProt Q9Y5X5)
Construct: expressed in transfected cells
Sequence (Q9Y5X5 whole entry): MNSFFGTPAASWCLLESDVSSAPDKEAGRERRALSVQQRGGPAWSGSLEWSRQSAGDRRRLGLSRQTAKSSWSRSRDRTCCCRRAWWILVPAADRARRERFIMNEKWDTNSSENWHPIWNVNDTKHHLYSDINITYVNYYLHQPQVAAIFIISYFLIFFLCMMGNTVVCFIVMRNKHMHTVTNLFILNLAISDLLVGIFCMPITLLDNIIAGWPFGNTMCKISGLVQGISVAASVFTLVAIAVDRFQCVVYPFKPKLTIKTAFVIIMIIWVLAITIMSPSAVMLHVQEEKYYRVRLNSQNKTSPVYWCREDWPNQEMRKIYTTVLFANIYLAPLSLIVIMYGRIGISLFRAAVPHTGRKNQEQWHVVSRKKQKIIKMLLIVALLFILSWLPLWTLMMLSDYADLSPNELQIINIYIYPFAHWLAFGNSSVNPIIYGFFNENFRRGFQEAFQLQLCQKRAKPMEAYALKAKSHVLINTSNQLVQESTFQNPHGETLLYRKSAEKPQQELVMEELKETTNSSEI
Assay: Calcium mobilization functional Ke assay, NPFF2
Assay type: cell-based
Conditions: Table 4; mean ± SEM; read-out: NPFF2 Ke

COc1ccc(CN[C@H]2C[C@@H](C(=O)NCCc3ccccc3)N(Cc3ccc4c(c3)OCO4)C2)cc1 > 10 µM
COc1ccc(CN[C@H]2C[C@@H](C(=O)NCCc3ccccc3)N(Cc3cccc(Cl)c3)C2)cc1 4.1 µM
COc1ccc(CN[C@H]2C[C@@H](C(=O)NCCc3ccccc3)N(Cc3ccccc3)C2)cc1 > 10 µM

Then there is this compound:
QUERY: Query Kb for `COc1ccc(CN[C@H]2C[C@@H](C(=O)NCCc3ccccc3)N(Cc3ccc(C#N)cc3)C2)cc1`
RESULT: > 10 µM
